- Measurement Protocol: Compound was evaluated for binding affinity towards L-arginine decarboxylase (ADC) from Escherichia coli in UV time dependent assay.
Parameter: Ki (mM)

> print(dat)
                                 compound  recorded.measurement
1  C=C[C@](N)(CCCNC(=N)N)C(=O)O (racemic)                   1.8

====

Reported half-life is given for each of the following molecules.
- Measurement Protocol: Half life was reported
- Format: ADME
Parameter: half-life (min)

> print(dat)
                                 molecule  parameter  recorded.measurement
1       C=C[C@](N)(CCCCN)C(=O)O (racemic)  half-life                    35
2  C=C[C@](N)(CCCNC(=N)N)C(=O)O (racemic)  half-life                    19
